Target: cIAP1-BIR2 (Homo sapiens (Human), UniProt Q13490)
Sequence (Q13490 173-257): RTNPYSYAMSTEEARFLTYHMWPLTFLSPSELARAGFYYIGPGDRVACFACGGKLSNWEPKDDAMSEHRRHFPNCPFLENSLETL
Assay: BIR binding assay (FRET competition), cIAP1 BIR2
pIC50: −log10 of the molar value.
Measured pIC50 values are reported for all entries that follow.

Recorded pIC50, per entry:
Smiles Entry	Readout Type	Measured
Cc1c(OC[C@@H]2CN(C[C@H]3CN[C@H](C)CN3CC(=O)N3CC(C)(C)c4[nH]c(=O)c(Cc5ccc(F)cc5)cc43)CCO2)cccc1OC[C@@H]1CN(C[C@H]2CN[C@H](C)CN2CC(=O)N2CC(C)(C)c3[nH]c(=O)c(Cc4ccc(F)cc4)cc32)CCO1	pIC50	5.50 to 6.00
C[C@@H]1CN(CC(=O)N2CC(C)(C)c3[nH]c(=O)c(Cc4ccc(F)cc4)cc32)[C@@H](CN2CCO[C@H](C(=O)NCCCN(C)C(=O)[C@@H]3CN(C[C@H]4CN[C@H](C)CN4CC(=O)N4CC(C)(C)c5[nH]c(=O)c(Cc6ccc(F)cc6)cc54)CCO3)C2)CN1	pIC50	5.00 to 5.50
C[C@@H]1CN(CC(=O)N2CC(C)(C)c3[nH]c(=O)c(Cc4ccc(F)cc4)cc32)[C@@H](CN2CCO[C@H](COc3ccc(F)c(OC[C@@H]4CN(C[C@H]5CN[C@H](C)CN5CC(=O)N5CC(C)(C)c6[nH]c(=O)c(Cc7ccc(F)cc7)cc65)CCO4)c3F)C2)CN1	pIC50	5.50 to 6.00

Below: the item to evaluate.
The measured pIC50 associated with C[C@@H]1CN(CC(=O)N2CC(C)(C)c3[nH]c(=O)c(Cc4ccc(F)cc4)cc32)[C@@H](CN2CCC(CC(=O)N(C)Cc3ccc(CN(C)C(=O)CC4CCN(C[C@H]5CN[C@H](C)CN5CC(=O)N5CC(C)(C)c6[nH]c(=O)c(Cc7ccc(F)cc7)cc65)CC4)cc3)CC2)CN1 reads 5.50 to 6.00
